# PROCEDURE SUMMARY: Steady-state exposure in healthy young men (G100402, MAD)
# PROTOCOL CONDITIONS: male, human, in vivo, 10 mg daily doses
PARAMETER MEASURED: AUC(0-t)

* C[C@](O)(COc1ccc(C#N)cc1)C(=O)Nc1ccc(C#N)c(C(F)(F)F)c1 | 1750 ng·h/mL
